target: Cholinesterase (Equus caballus); experiment: Inhibition of horse serum BChE after 2 mins by Ellman's reaction
Sequence (P81908 whole entry): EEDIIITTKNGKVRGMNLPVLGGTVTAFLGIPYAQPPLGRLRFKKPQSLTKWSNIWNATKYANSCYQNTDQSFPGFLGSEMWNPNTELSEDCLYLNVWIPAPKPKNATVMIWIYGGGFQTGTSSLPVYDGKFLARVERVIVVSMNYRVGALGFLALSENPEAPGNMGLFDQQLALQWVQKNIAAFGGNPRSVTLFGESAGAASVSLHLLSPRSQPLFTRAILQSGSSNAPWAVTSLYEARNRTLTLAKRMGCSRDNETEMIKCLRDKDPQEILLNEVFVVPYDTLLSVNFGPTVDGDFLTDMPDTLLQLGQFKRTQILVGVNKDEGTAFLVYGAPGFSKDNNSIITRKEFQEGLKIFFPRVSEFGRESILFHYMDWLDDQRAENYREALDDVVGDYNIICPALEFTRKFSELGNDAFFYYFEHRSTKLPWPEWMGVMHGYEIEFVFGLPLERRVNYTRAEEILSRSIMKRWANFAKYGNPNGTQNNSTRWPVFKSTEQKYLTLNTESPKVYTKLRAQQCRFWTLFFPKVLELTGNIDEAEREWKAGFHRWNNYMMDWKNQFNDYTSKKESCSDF
readout_type: IC50 (µM)

1) CC(C)=CCOc1c2ccoc2cc2oc(=O)ccc12    23.1
2) C/C(=C\COc1c2ccoc2cc2oc(=O)ccc12)CC[C@@H](O)C(C)(C)O    15.4
3) CC(C)=CCC[C@@H](C)C/C=C/C(=O)OC[C@H]1O[C@@H](OC(C)C)[C@H](O)[C@@H](O)[C@@H]1O [CITRUSOSIDE A]    376
4) C/C(=C\COc1c2ccoc2cc2oc(=O)ccc12)CC[C@@H](OC(=O)CC(C)(O)CC(=O)OC[C@H]1O[C@@H](OC(C)C)[C@H](O)[C@@H](O)[C@@H]1O)C(C)(C)O (stereo not given in full) [CITRUSOSIDE B]    339
5) COC(C)(C)[C@H](O)CC/C(C)=C/COc1c2ccoc2cc2oc(=O)ccc12    11.2
